Provenance of the data: paper PMC4072508

Biological target: T1, Mcl-1, Q07820
T1 chain: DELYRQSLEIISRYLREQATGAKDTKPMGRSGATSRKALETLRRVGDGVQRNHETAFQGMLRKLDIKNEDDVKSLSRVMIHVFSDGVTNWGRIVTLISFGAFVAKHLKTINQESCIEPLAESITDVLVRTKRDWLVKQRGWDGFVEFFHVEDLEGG
Experiment: peptide SPOT array, c-Myc-tagged receptor at 1 uM or 100 nM, anti-c-Myc-Cy3
attribute_measured: SPOT signal as a fraction of Bim BH3's signal on the same receptor and array
# answer = number (no unit)

* PALLVHWAKCLQKMGRGLNSSYDQQE [RGPD2] | 0.51

Query: Suppose we examine the binder AALFLHAGCQDLTAGEDGKVQVWSGS [TEP1] ; what SPOT signal as a fraction of Bim BH3's signal on the same receptor and array value has been reported?
Reply: 0.02

Query: Entry VLAPVQLGKWLVLFCDEINLPDMDKY [DYNC1H1] has what SPOT signal as a fraction of Bim BH3's signal on the same receptor and array?
Reply: 0.05

Query: Quick one: SPOT signal as a fraction of Bim BH3's signal on the same receptor and array for KRALIQCAKDIAKALDEVTRLAKEVA [VCL] ?
Reply: 0.05

Query: Which SPOT signal as a fraction of Bim BH3's signal on the same receptor and array value belongs to LGDGPKLVRELFRVAEEHAPSIVFID [PSMC1] ?
Reply: 0.04

Query: For the binder FVGCEFLHHLLREWGEELQAVLRSSQ [GEMIN4] , what SPOT signal as a fraction of Bim BH3's signal on the same receptor and array is on record?
Reply: 0.04

Query: Item under review: ERAISCMGQIICNLGDNLGSDLPNTL [CAND1] . Reported SPOT signal as a fraction of Bim BH3's signal on the same receptor and array?
Reply: 0.01
